In this section we review reported Kd values for a set of binders.
target of assay: Replication protein A (RPA heterotrimer) (human, UniProt P27694;P15927;P35244 1-616;1-270;1-121)
Sequence (P27694 whole entry, chain 1 of 3): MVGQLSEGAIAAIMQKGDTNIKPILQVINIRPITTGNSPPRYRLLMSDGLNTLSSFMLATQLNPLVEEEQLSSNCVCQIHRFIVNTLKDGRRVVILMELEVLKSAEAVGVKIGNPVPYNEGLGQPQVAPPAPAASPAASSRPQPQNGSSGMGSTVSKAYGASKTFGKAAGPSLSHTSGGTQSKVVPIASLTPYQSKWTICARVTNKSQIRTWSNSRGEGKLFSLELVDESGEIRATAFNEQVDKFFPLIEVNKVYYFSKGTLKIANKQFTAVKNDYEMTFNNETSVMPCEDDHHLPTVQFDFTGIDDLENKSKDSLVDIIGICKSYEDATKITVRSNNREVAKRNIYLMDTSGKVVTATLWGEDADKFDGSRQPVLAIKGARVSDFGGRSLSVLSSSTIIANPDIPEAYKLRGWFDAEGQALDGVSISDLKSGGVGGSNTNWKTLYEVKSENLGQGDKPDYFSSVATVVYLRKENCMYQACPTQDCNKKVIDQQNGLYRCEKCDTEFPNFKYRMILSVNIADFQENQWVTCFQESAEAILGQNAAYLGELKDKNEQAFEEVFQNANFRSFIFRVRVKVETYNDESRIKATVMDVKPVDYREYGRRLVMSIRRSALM
Sequence (P15927 whole entry, chain 2 of 3): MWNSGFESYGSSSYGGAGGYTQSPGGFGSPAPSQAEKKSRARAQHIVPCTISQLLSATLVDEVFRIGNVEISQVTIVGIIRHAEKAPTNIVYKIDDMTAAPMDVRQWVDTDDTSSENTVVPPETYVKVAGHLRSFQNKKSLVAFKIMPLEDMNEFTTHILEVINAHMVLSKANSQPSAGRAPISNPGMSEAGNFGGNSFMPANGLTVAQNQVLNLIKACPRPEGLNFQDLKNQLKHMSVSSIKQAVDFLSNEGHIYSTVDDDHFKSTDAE
Sequence (P35244 whole entry, chain 3 of 3): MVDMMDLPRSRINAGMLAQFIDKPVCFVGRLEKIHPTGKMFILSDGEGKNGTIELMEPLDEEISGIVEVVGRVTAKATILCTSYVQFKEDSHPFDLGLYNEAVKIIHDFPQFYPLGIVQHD
assay method text: EMSA

| binder | Kd (nM) |
| --- | --- |
| dsDNA nos. 211/212 (dsDNA) DNA 1: GAAGCATTTATCAGGGTTATTGTCTCATGAGCGGATACATATTTGAAT DNA 2: ATTCAAATATGTATCCGCTCATGAGACAATAACCCTGATAAATGCTTC | 35.5 |
| RNA-DNA hybrid nos. 501/212 (DNA:RNA) RNA: GAAGCAUUUAUCAGGGUUAUUGUCUCAUGAGCGGAUACAUAUUUGAAU DNA: ATTCAAATATGTATCCGCTCATGAGACAATAACCCTGATAAATGCTTC | 85.9 |
| GAAGCAUUUAUCAGGGUUAUUGUCUCAUGAGCGGAUACAUAUUUGAAU (ssRNA) [RNA no. 501] | 0.101 |
| GAAGCATTTATCAGGGTTATTGTCTCATGAGCGGATACATATTTGAAT (ssDNA) [ssDNA no. 211] | 0.0031 |
